Value source: paper PMC8222333

TGT: dAsCas12a WT (Acidaminococcus sp., UniProt U2UMQ6 1-1307, D908A;E993A;D1235A)
ASSAY EXPLANATION: Spec-seq (native PAGE EMSA with sequencing of bound and unbound); 25 mM Tris-HCl pH 7.4, 150 mM KCl, 5 mM MgCl2, 10% glycerol, 1 mM DTT, 40 ng/uL salmon sperm DNA; 400 nM Cas12a, 480 nM crRNA, 50 nM library, 37 C 1 h; native P; high values mean tight binding
Record form. Attribute: binding signal. Fill in for each entry.
Could you give me the number in lnKA? Just the number is fine.

Q. Recall and state the measured binding signal for TATA (dsDNA) DNA 1: GCTATCTAGTGCTCAGTACGCACTGTATAAGGAAACTTCTGGCAGGACCAGGTCATGAGATCGGAAGAGCACACGTCTGAACTCCAGTCA DNA 2: TGACTGGAGTTCAGACGTGTGCTCTTCCGATCTCATGACCTGGTCCTGCCAGAAGTTTCCTTATACAGTGCGTACTGAGCACTAGATAGC RNA: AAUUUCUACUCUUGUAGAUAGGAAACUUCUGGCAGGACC .
A. -8

Q. Recall and state the measured binding signal for GTTT (dsDNA) DNA 1: GCTATCTAGTGCTCAGTACGCACTGGTTTAGGAAACTTCTGGCAGGACCAGGTCATGAGATCGGAAGAGCACACGTCTGAACTCCAGTCA DNA 2: TGACTGGAGTTCAGACGTGTGCTCTTCCGATCTCATGACCTGGTCCTGCCAGAAGTTTCCTAAACCAGTGCGTACTGAGCACTAGATAGC RNA: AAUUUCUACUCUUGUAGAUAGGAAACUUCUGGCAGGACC .
A. -8.41
